Source listed as PubChem BioAssay (NCI).

# Test system: CCRF-CEM leukemia
# Assay summary: NCI tumour cell line growth inhibition, 48 h
Measured property: TGI

Below are worked cases with known answers.
| Compound | System | TGI |
| --- | --- | --- |
| COc1ccc(OC)c2c(C(C)=O)cccc12 | CCRF-CEM leukemia | > 100 µM |
| CSc1cc(Cl)c(C)cc1S(=O)(=O)NC(=O)NNc1ccc(C)cc1 | CCRF-CEM leukemia | > 100 µM |
| COC(=O)c1c(C)nc(C)c2c1C(=O)C(Br)=C(NCc1ccccc1)C2=O | CCRF-CEM leukemia | 36.8 µM |
| CC(=O)OCC1OC(OCCCOP(=O)(OCCC#N)OCC2OC(n3cnc4c(N)ncnc43)C(OC(=O)c3ccccc3)C2OC(=O)c2ccccc2)C(OC(C)=O)C(OC(C)=O)C1OC(C)=O (stereo unspecified) | CCRF-CEM leukemia | > 100 µM |
| COC(=O)/C=C(C)/C=C\COC1CCCCO1 (stereo unspecified) | CCRF-CEM leukemia | > 100 µM |
| COC(=O)c1ccccc1C1CN=NC12Cc1ccc(C)cc1C2=O (stereo unspecified) | CCRF-CEM leukemia | > 100 µM |
| COc1cccc(NC(=O)CC(=O)NN)c1 | CCRF-CEM leukemia | > 100 µM |
| CCCCCCCCCCCC/C=C\CC[C@@H](O)[C@H](O)CC[C@H](O)[C@@H]1CC[C@@H](CCCCCCCC2=C[C@H](C)OC2=O)O1 | CCRF-CEM leukemia | > 100 µM |

The reported CCRF-CEM leukemia TGI of Cn1cc(-c2cc(-c3cn(C)c4ccccc34)[nH]n2)c2ccccc21 is 29.3 µM

The reported CCRF-CEM leukemia TGI of CCOP1(=O)CC(C)=C(Cl)C(OC)C1 (stereo unspecified) is > 100 µM

The reported CCRF-CEM leukemia TGI of Cc1c(C#N)c2nnn(-c3cccc(Cl)c3)c(=O)n2c1-c1ccccc1 is > 100 µM
